Values compiled from patent US9890111B2.

target: penicillin-binding protein 1b from E. coli (transglycosylase) (Escherichia coli, UniProt P02919); construct: PBP1b[58-804] was amplified from E. coli genomic DNA and cloned into the expression vector pET15b; His6 (N, cleaved yes); made in house; host or cells: E. coli BL21(DE3); assay: Lipid II polymerization / transglycosylase (TG) activity assay; format: biochemical; conditions: 50 μM compound; TG activity remaining (0% = full inhibition)
Sequence (P02919 58-804): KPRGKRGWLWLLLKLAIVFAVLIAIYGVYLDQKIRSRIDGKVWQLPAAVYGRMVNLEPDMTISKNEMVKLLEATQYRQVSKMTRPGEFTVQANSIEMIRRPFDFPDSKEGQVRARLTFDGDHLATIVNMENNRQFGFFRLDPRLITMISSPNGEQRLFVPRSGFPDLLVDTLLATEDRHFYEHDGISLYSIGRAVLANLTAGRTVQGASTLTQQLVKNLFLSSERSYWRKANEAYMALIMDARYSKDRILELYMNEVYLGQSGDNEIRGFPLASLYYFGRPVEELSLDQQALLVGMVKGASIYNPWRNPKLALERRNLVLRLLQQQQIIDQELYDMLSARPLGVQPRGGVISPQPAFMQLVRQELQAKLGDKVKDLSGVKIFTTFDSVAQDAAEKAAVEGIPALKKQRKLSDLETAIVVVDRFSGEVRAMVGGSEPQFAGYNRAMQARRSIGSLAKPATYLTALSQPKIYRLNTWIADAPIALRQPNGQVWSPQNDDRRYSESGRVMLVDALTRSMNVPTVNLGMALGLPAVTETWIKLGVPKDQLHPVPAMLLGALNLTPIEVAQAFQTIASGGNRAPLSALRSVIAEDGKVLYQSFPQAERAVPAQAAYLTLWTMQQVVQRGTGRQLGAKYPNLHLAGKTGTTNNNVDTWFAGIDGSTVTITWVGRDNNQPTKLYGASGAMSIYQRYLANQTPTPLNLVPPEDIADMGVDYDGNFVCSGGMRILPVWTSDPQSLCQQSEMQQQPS
Entries annotated with measured TG Activity at various concentration of cmpd: 50 μM
Response body: numeric value in %, unit text excluded.

Form field TG Activity at various concentration of cmpd: 50 μM, entry `O=C(Nc1cc(Cl)cc(C(=O)c2ccccc2)c1Cl)c1cc(Br)cc(Br)c1O` : 100

Form field TG Activity at various concentration of cmpd: 50 μM, entry Cc1ccc(C(C)C)cc1Oc1ccc(Cl)cc1NC(=O)c1cc(Cl)cc(Br)c1O [Compound 121] : 0

Form field TG Activity at various concentration of cmpd: 50 μM, entry `Cc1ccc(C(C)C)c(Oc2ccc(Cl)cc2NC(=O)c2cc(I)cc(I)c2O)c1` : 0

Form field TG Activity at various concentration of cmpd: 50 μM, entry `O=C(Nc1ccccc1Oc1ccccc1)c1ccc(O)c(O)c1O` : 100

Form field TG Activity at various concentration of cmpd: 50 μM, entry `Cc1ccc(NC(=O)c2ccccc2)cc1Cl` : 100

Form field TG Activity at various concentration of cmpd: 50 μM, entry `O=C(Nc1cc(Cl)ccc1Oc1ccccc1)c1ccc(O)c(O)c1O` : 100

Form field TG Activity at various concentration of cmpd: 50 μM, entry `O=C(Nc1ccccc1Oc1ccccc1)c1cc(Br)cc(Br)c1` : 100

Form field TG Activity at various concentration of cmpd: 50 μM, entry `Cc1ccc(C(C)C)c(Oc2ccc(Cl)cc2NC(=O)c2cc(Cl)cc(Cl)c2O)c1` : 0

***
Form field TG Activity at various concentration of cmpd: 50 μM, entry `Cc1ccc(C(C)C)c(Oc2ccccc2NC(=O)c2cc(Br)cc(Br)c2O)c1` : 0

Form field TG Activity at various concentration of cmpd: 50 μM, entry `O=C(Nc1cc(Cl)ccc1Oc1ccccc1)c1ccc(O)cc1` : 100

Form field TG Activity at various concentration of cmpd: 50 μM, entry `O=C(Nc1ccccc1Oc1ccccc1)c1ccccc1O` : 100

Form field TG Activity at various concentration of cmpd: 50 μM, entry `O=C(Nc1cc(Cl)ccc1Oc1ccccc1)c1cc(Br)cc(Br)c1` : 100

Form field TG Activity at various concentration of cmpd: 50 μM, entry `O=C(Nc1ccccc1Oc1ccccc1)c1cc(Br)cc(Br)c1O` : 100

Form field TG Activity at various concentration of cmpd: 50 μM, entry `O=C(Nc1cc(Cl)cc(C(=O)c2ccc(Cl)cc2)c1Cl)c1cc(Cl)cc(Br)c1O` : 100

Form field TG Activity at various concentration of cmpd: 50 μM, entry `Cc1ccc(C(C)C)c(Oc2ccccc2NC(=O)c2cc(I)cc(I)c2O)c1` : 0

Form field TG Activity at various concentration of cmpd: 50 μM, entry `O=C(c1ccc(Cl)cc1)c1ccc(Oc2ccc(Cl)cc2)c(NC(=O)c2cc(I)cc(I)c2O)c1` : 0

Form field TG Activity at various concentration of cmpd: 50 μM, entry `O=C(c1ccc(Cl)cc1)c1cc(NC(=O)c2cc(Cl)cc(Br)c2O)c(Cl)cc1Cl` : 60

Form field TG Activity at various concentration of cmpd: 50 μM, entry O=C(Nc1ccc(Cl)cc1)c1cc(Br)cc(Br)c1O [Compound A1N4] : 100
